# Test system: RPMI-8226
# procedure.text: NCI tumour cell line growth inhibition, 48 h
Activity calls are given as the source filed them. No stated cut-off is given here; in the data, active = GI50 up to about 1.1 µM and inactive = higher.
Write down one outcome, taken from yes (active), no (inactive)

Example cases with answers are listed next.
1. O=C(/C=C/c1ccsc1)c1ccc(Cl)cc1 :: no
2. COc1ccc(/N=N/c2ccc3oc(=O)c(C(=O)Nc4ccc(Cl)cc4)cc3c2)cc1 :: no
3. C/C=C1\C(=O)O[C@H]2C/C(C)=C/CC/C(C)=C/CC[C@@]3(C)O[C@@H]3C[C@@H]12 :: no

Query: State the result this test recorded for "COc1cccc(/C=N/C23CC4CC(CC(C4)C2)C3)c1" .
Result: no

Query: Can you handle CCOC(=O)C1(C(C)=O)OC(=O)c2cnccc21 (stereo unspecified) next?
Result: no

Query: Can you handle O/N=C1/C(=C/c2ccc(Oc3ccccc3)cc2)CCCC1C(NO)c1ccc(Oc2ccccc2)cc1 (stereo unspecified) next?
Result: no

Query: Can you handle O=C1C(F)=CC(COC(c2ccccc2)(c2ccccc2)c2ccccc2)OC1n1cc(F)c(=O)[nH]c1=O (stereo unspecified) next?
Result: yes

Query: Can you handle COC(=O)C[S+]([O-])c1ccccc1 (stereo unspecified) next?
Result: no

Query: Can you handle CCOC(=O)C1=C(C)N(c2ccc(Cl)cc2)C2(O)C=CC(Nc3ccc(Cl)cc3)=C3C(=O)N(c4ccccc4)C(=O)C312 (stereo unspecified) next?
Result: no

Query: Can you handle Nc1nc(N)c2ncn(CC3CCC(CO)C3)c2n1 (stereo unspecified) next?
Result: no

Query: Can you handle "CCOC(=O)c1c(SCC#N)n(-c2ccccc2)c(=S)n(-c2ccccc2)c1=O" next?
Result: no

---

# System: MCF7
# procedure.text: NCI tumour cell line growth inhibition, 48 h
Active and inactive are the calls of the source. Cut-off read from the data, not from the text of the source: active = GI50 up to about 1.1 µM and inactive = higher.
measurement.name: GI50

# count of solved cases: 4
1. C/N=C(N)/N=C(\N)Nc1cc2ccccc2c2ccccc12 :: 13.2 µM (inactive)
2. C=CC(OC(=O)C(C)C)c1ccc(OC(=O)C(C)C)cc1 (stereo not given) :: 3.3 µM (inactive)
3. Cc1cc(C)c(-n2c(-c3ccc(Br)cc3)cs/c2=N\N=C2C=C(C(C)(C)C)C(=O)C(C(C)(C)C)=C2)c(C)c1 :: > 100 µM (inactive)
4. C#C[C@]1(O)CC[C@H]2[C@@H]3CCC4=C/C(=N/CCOC(=O)c5cccc6c(=O)c7ccccc7[nH]c56)CC[C@@H]4[C@H]3CC[C@@]21C :: 26.1 µM (inactive)

Next compound, GI50 to be filled in.
Query: Give the measured GI50 of CCNCC(O)COc1ccc2c(c1)[n+]([O-])nc(N)[n+]2[O-] (stereo not given) .
Result: 74 µM (inactive)

---

So I've got a bunch of compounds here, and I need their GI50 values.
# Test system: SW-620
# procedure.text: NCI tumour cell line growth inhibition, 48 h
Activity calls are given as the source filed them. Rule as the data show it: active = GI50 up to about 1.1 µM and inactive = higher.

# count of solved cases: 3
1) O=c1[nH]c(=O)n(C2OC(CO)C(O)C2O)c2ccsc12 (centres undefined) :: > 100 µM (inactive)
2) S=C1NCN2CCN(CC2)CNC(=S)C(=S)NCN2CCN(CC2)CNC1=S :: 30.4 µM (inactive)
3) COc1cc(S(=O)(=O)Nc2ccc(-c3csc(/N=C\c4cccc(Oc5ccccc5)c4)n3)cc2)ccc1Cl :: 40.3 µM (inactive)

Next compound, GI50 to be filled in.
Query: Recorded GI50 for "[Se]=P(c1ccccc1)(c1ccccc1)c1ccc(C(c2ccccc2)=P(c2ccccc2)(c2ccccc2)c2ccccc2)cc1" with SW-620, please?
Result: 1.19 µM (inactive)
